Hey, just so you know, these numbers are from patent US11512268B2.

compounds and their reported lipase activity
targetOrSystem: Lipolase (Thermomyces lanuginosus, UniProt O59952)
Construct: purchased Sigma-Aldrich
Sequence (O59952 23-291): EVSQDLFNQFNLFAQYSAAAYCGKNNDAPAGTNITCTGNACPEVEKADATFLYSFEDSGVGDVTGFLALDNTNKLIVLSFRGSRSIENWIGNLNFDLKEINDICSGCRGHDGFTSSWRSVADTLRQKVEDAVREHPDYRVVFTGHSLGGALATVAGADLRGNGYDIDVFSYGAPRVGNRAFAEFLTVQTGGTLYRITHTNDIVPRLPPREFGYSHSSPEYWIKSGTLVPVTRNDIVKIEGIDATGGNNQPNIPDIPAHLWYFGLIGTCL
measurementNotes: storage stability of lipase (Lipolase activity, pNitrophenol-valerate substrate) in liquid formulations at 37° C.
Assay type: biochemical, Thermomyces lanuginosa
assaySetup: base formulation III.; component (a) 2.5 wt %; Lipolase 0.4 wt %; storage at 37° C.; 15 d
Report as a plain number; the unit % is understood.

Consider the reported lipase activity for these compounds:
O=C([O-])CC(O)(CC(=O)[O-])C(=O)[O-].[Na+].[Na+].[Na+] [C-(A.22), trisodium salt of citric acid]; 37
O=C([O-])CC(O)(CC(=O)O)C(=O)O.[Na+] [C-(A.20), monosodium salt of citric acid]; 39
CC(=O)OCC[N+](C)(C)C; 86

Lab note: next compound to report on.
Q: // query lipase activity value for entry O=C([O-])CC(O)(CC(=O)[O-])C(=O)O.[Na+].[Na+] [C-(A.21), disodium salt of citric acid]
Result: 39

----------
targetOrSystem: Lipolase (Thermomyces lanuginosus, UniProt O59952)
Construct: purchased Sigma-Aldrich
Sequence (O59952 23-291): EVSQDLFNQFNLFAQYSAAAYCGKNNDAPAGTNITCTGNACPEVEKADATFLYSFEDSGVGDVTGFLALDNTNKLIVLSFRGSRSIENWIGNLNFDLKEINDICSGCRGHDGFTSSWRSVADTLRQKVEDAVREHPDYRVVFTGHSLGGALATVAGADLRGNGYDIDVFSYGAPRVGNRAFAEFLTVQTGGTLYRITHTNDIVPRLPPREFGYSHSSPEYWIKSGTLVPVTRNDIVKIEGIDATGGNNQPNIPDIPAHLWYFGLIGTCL
measurementNotes: storage stability of lipase (Lipolase activity, pNitrophenol-valerate substrate) in liquid formulations at 37° C.
Assay type: biochemical, Thermomyces lanuginosa
assaySetup: base formulation III.; component (a) 2.5 wt %; Lipolase 0.4 wt %; storage at 37° C.; 20 d
measuredQuantity: lipase activity (%)
Report as a plain number; the unit % is understood.

Consider the reported lipase activity for these compounds:
O=C([O-])CC(O)(CC(=O)[O-])C(=O)[O-].[Na+].[Na+].[Na+] [C-(A.22), trisodium salt of citric acid]; 28
O=C([O-])CC(O)(CC(=O)[O-])C(=O)O.[Na+].[Na+] [C-(A.21), disodium salt of citric acid]; 31
CC(=O)OCC[N+](C)(C)C; 80

Q: Item: O=C([O-])CC(O)(CC(=O)O)C(=O)O.[Na+] [C-(A.20), monosodium salt of citric acid] Test system: Lipolase (Thermomyces lanuginosus, UniProt O59952) Read-out: lipase activity Value: ?
Result: 30

----------
compounds and their reported lipase activity
targetOrSystem: Lipolase (Thermomyces lanuginosus, UniProt O59952)
Construct: purchased Sigma-Aldrich
measurementNotes: storage stability of lipase (Lipolase activity, pNitrophenol-valerate substrate) in liquid formulations at 37° C.
Type: biochemical, Thermomyces lanuginosa
assaySetup: base formulation IV.; component (a) 4.0 wt %; Lipolase 0.4 wt %; storage at 37° C.; 20 d
Report as a plain number; the unit % is understood.

C[N+](C)(C)CCO.[Cl-] [C-(A.15), Choline chloride]; 36
C[N+](C)(C)CCO.C[N+](C)(C)CCO.O=C([O-])CC(O)(CC(=O)O)C(=O)[O-]; 46
C[N+](C)(C)CCO.C[N+](C)(C)CCO.O=C([O-])C(O)C(O)C(=O)[O-] (stereo not shown); 34

Lab note: next compound to report on.
Q: // query lipase activity value for entry C[N+](C)(C)CCO.C[N+](C)(C)CCO.C[N+](C)(C)CCO.O=C([O-])CC(O)(CC(=O)[O-])C(=O)[O-]
Result: 46

----------
targetOrSystem: Lipolase (Thermomyces lanuginosus)
Construct: purchased Sigma-Aldrich
measurementNotes: storage stability of lipase (Lipolase activity, pNitrophenol-valerate substrate) in liquid formulations at 37° C.
Format: biochemical, Thermomyces lanuginosa
assaySetup: base formulation III.; component (a) 2.5 wt %; Lipolase 0.4 wt %; storage at 37° C.; 3 d
molecules and their reported lipase activity
Report as a plain number; the unit % is understood.

Consider the reported lipase activity for these molecules:
O=C([O-])CC(O)(CC(=O)[O-])C(=O)[O-].[Na+].[Na+].[Na+] [C-(A.22), trisodium salt of citric acid]; 76
CC(=O)OCC[N+](C)(C)C; 97
O=C([O-])CC(O)(CC(=O)O)C(=O)O.[Na+] [C-(A.20), monosodium salt of citric acid]; 79

Q: Item: O=C([O-])CC(O)(CC(=O)[O-])C(=O)O.[Na+].[Na+] [C-(A.21), disodium salt of citric acid] Test system: Lipolase (Thermomyces lanuginosus) Read-out: lipase activity Value: ?
Result: 78

----------
targetOrSystem: Lipolase (Thermomyces lanuginosus, UniProt O59952)
Construct: purchased Sigma-Aldrich
measurementNotes: storage stability of lipase (Lipolase activity, pNitrophenol-valerate substrate) in liquid formulations at 37° C.
Assay type: biochemical, Thermomyces lanuginosa
assaySetup: base formulation III.; component (a) 2.5 wt %; Lipolase 0.4 wt %; storage at 37° C.; 25 d
compounds and their reported lipase activity
Report as a plain number; the unit % is understood.

O=C([O-])CC(O)(CC(=O)O)C(=O)O.[Na+] [C-(A.20), monosodium salt of citric acid]; 22
O=C([O-])CC(O)(CC(=O)[O-])C(=O)[O-].[Na+].[Na+].[Na+] [C-(A.22), trisodium salt of citric acid]; 23

Q: // query lipase activity value for entry CC(=O)OCC[N+](C)(C)C [(A.12), Acetylcholine]
Result: 78

Q: // query lipase activity value for entry O=C([O-])CC(O)(CC(=O)[O-])C(=O)O.[Na+].[Na+] [C-(A.21), disodium salt of citric acid]
Result: 25

----------
targetOrSystem: Lipolase (Thermomyces lanuginosus)
Construct: purchased Sigma-Aldrich
measurementNotes: storage stability of lipase (Lipolase activity, pNitrophenol-valerate substrate) in liquid formulations at 37° C.
Assay type: biochemical, Thermomyces lanuginosa
assaySetup: base formulation I.; component (a) 2.5 wt %; Lipolase 0.4 wt %; storage at 37° C.; 10 d
measuredQuantity: lipase activity (%)
Report as a plain number; the unit % is understood.

C[N+](C)(C)CCO.[Cl-] [C-(A.15), Choline chloride]; 55
C[N+](C)(C)CCO.C[N+](C)(C)CCO.O=C([O-])CC(O)(CC(=O)O)C(=O)[O-]; 53
C[N+](C)(C)CCO.C[N+](C)(C)CCO.O=C([O-])C(O)C(O)C(=O)[O-] (stereo not shown); 51

Lab note: next compound to report on.
Q: // query lipase activity value for entry C[N+](C)(C)CCO.C[N+](C)(C)CCO.C[N+](C)(C)CCO.O=C([O-])CC(O)(CC(=O)[O-])C(=O)[O-]
Result: 55

----------
compounds and their reported lipase activity
targetOrSystem: Lipolase (Thermomyces lanuginosus)
Construct: purchased Sigma-Aldrich
measurementNotes: storage stability of lipase (Lipolase activity, pNitrophenol-valerate substrate) in liquid formulations at 37° C.
Assay type: biochemical, Thermomyces lanuginosa
assaySetup: base formulation I.; component (a) 2.5 wt %; Lipolase 0.4 wt %; storage at 37° C.; 25 d
Report as a plain number; the unit % is understood.

Consider the reported lipase activity for these compounds:
C[N+](C)(C)CCO.[Cl-] [C-(A.15), Choline chloride]; 22
C[N+](C)(C)CCO.C[N+](C)(C)CCO.O=C([O-])CC(O)(CC(=O)O)C(=O)[O-] [C-(A.17)]; 33
C[N+](C)(C)CCO.C[N+](C)(C)CCO.C[N+](C)(C)CCO.O=C([O-])CC(O)(CC(=O)[O-])C(=O)[O-] [C-(A.18)]; 32

Lab note: next compound to report on.
Q: // query lipase activity value for entry C[N+](C)(C)CCO.C[N+](C)(C)CCO.O=C([O-])C(O)C(O)C(=O)[O-] (stereo not shown) [C-(A.16)]
Result: 25

----------
molecules and their reported lipase activity
targetOrSystem: Lipolase (Thermomyces lanuginosus, UniProt O59952)
Construct: purchased Sigma-Aldrich
measurementNotes: storage stability of lipase (Lipolase activity, pNitrophenol-valerate substrate) in liquid formulations at 37° C.
Format: biochemical, Thermomyces lanuginosa
assaySetup: base formulation IV.; component (a) 4.0 wt %; Lipolase 0.4 wt %; storage at 37° C.; 3 d
Description: The storage stability of Lipase and Protease in water was assessed at 37° C. Base test formulations were manufactured by making base formulations I to VI by mixing the components according to Table 1. […] The amount of enzyme as provided in Table 1 refers to active protein. Either lipase or protease was added, depending on which enzyme activity was measured. […]
Report as a plain number; the unit % is understood.

Consider the reported lipase activity for these molecules:
C[N+](C)(C)CCO.C[N+](C)(C)CCO.O=C([O-])CC(O)(CC(=O)O)C(=O)[O-]; 86
C[N+](C)(C)CCO.C[N+](C)(C)CCO.O=C([O-])C(O)C(O)C(=O)[O-] (stereo not shown); 81
C[N+](C)(C)CCO.[Cl-] [C-(A.15), Choline chloride]; 82

Lab note: next molecule to report on.
Q: // query lipase activity value for entry C[N+](C)(C)CCO.C[N+](C)(C)CCO.C[N+](C)(C)CCO.O=C([O-])CC(O)(CC(=O)[O-])C(=O)[O-]
Result: 84
